These data points were gathered from patent US10988477B2.

- EXPERIMENTAL TARGET: GCN2 kinase (Homo sapiens, UniProt Q9P2K8)
- Sequence (Q9P2K8 whole entry): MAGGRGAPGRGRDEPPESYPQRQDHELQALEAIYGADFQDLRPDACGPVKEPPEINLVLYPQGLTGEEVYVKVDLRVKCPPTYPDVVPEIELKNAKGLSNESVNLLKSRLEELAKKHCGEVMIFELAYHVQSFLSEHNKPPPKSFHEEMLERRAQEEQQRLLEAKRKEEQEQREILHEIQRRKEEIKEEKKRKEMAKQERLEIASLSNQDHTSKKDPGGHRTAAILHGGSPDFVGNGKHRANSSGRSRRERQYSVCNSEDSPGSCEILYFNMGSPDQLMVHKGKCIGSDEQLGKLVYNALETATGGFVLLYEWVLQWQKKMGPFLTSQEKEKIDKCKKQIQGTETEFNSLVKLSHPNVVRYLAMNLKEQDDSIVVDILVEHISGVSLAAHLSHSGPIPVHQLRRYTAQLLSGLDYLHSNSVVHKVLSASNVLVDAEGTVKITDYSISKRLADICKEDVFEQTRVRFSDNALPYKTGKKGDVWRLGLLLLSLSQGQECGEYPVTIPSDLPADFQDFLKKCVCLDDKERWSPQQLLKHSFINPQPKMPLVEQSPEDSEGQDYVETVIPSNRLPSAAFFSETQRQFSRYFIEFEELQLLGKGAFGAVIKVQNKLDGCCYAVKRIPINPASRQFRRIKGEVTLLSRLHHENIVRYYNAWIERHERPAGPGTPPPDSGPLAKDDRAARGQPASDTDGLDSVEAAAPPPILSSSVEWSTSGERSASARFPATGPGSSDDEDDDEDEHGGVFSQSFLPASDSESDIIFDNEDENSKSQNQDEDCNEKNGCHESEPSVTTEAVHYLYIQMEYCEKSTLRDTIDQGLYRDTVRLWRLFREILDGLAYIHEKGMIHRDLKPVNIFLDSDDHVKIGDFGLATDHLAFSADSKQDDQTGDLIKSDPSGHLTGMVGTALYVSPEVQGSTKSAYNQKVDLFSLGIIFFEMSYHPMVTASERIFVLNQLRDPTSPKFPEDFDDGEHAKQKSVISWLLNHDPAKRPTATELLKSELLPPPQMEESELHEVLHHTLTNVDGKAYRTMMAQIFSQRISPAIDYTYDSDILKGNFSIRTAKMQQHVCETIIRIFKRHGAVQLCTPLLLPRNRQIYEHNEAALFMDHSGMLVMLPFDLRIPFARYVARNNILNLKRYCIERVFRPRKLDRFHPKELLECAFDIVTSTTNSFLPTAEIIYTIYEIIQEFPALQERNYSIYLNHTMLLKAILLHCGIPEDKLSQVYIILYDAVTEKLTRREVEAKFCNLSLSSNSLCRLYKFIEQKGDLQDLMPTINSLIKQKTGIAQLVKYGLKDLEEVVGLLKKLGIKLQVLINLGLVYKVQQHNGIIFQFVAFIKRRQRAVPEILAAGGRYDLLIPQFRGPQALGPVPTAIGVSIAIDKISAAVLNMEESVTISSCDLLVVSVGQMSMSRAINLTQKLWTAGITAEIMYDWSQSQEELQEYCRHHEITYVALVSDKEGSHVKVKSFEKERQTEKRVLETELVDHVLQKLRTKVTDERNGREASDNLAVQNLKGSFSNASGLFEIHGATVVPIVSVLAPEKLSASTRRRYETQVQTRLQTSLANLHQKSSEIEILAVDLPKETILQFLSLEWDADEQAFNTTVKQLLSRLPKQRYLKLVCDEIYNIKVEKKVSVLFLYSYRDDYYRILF
- ASSAY DETAILS: GCN2 enzyme inhibition assay (Transcreener ADP2 fluorescence polarization)
- Assay type: biochemical
- TEST CONDITIONS: compounds of Formula V; 280 μM ATP, 4 nM GCN2 kinase
PROPERTY MEASURED: Ki

COMPOUND	EXPERIMENTAL TARGET	VALUE OBSERVED
FC(F)(F)c1cn2c(-c3nccc(N4CCOC(c5cn[nH]c5)C4)n3)cnc2s1 (stereo not shown) [Compound V-15]	GCN2 kinase (Homo sapiens, UniProt Q9P2K8)	< 0.01 µM
CS(=N)(=O)CC1CCCN(c2ccnc(-c3cnc4sc(C(F)(F)F)cn34)n2)C1 (racemic) [Compound V-18]	GCN2 kinase (Homo sapiens, UniProt Q9P2K8)	0.1 to 1 µM
CS(=N)(=O)CC1CCCN(c2ccnc(-c3cnc4sc(C(F)(F)F)cn34)n2)C1 (racemic) [Compound V-19]	GCN2 kinase (Homo sapiens, UniProt Q9P2K8)	0.1 to 1 µM
O=C1CCN(c2ccnc(-c3cnc4sc(C(F)(F)F)cn34)n2)CCN1	GCN2 kinase (Homo sapiens, UniProt Q9P2K8)	0.1 to 1 µM
C[C@@H]1CN(c2ccnc(-c3cnc4sc(C(F)F)cn34)n2)C[C@H](CNS(C)(=O)=O)C1(F)F (stereo in doubt)	GCN2 kinase (Homo sapiens, UniProt Q9P2K8)	0.1 to 1 µM
C[C@H]1CN(c2ccnc(-c3cnc4sc(C(F)F)cn34)n2)C[C@@H](CNS(C)(=O)=O)C1(F)F (stereo in doubt)	GCN2 kinase (Homo sapiens, UniProt Q9P2K8)	< 0.01 µM

Turning now to a further compound:
Task: Report value only: Ki, GCN2 kinase (Homo sapiens, UniProt Q9P2K8), CS(C)(=O)=NC1CCCN(c2ccnc(-c3cnc4sc(C(F)(F)F)cn34)n2)C1 (stereo not shown)
Output: 0.1 to 1 µM
